# System: CAL-54 (Kidney Carcinoma)
# ASSAY SUMMARY: combination Emax (second highest fraction inhibited in the dose matrix, 72 h); higher = more inhibition; extreme values may be limits of the assay

- COMPOUND: "CCN(CCO)CCCOc1ccc2c(Nc3cc(CC(=O)Nc4cccc(F)c4)[nH]n3)ncnc2c1 [AZD2811] + C=CCn1c(=O)c2cnc(Nc3ccc(N4CCN(C)CC4)cc3)nc2n1-c1cccc(C(C)(C)O)n1 [AZD1775] (first compound max 1 µM, partner max 1 µM)"
  ASSAY SYSTEM: "CAL-54 (Kidney Carcinoma)"
  combination Emax: 0.622
- COMPOUND: "Cn1cnc2c(F)c(Nc3ccc(Br)cc3Cl)c(C(=O)NOCCO)cc21 [Selumetinib] + C=CCn1c(=O)c2cnc(Nc3ccc(N4CCN(C)CC4)cc3)nc2n1-c1cccc(C(C)(C)O)n1 [AZD1775] (first compound max 10 µM, partner max 1 µM)"
  ASSAY SYSTEM: "CAL-54 (Kidney Carcinoma)"
  combination Emax: 0.643
- COMPOUND: "Cc1c2c(nn1C)CSCc1cc(n(C)n1)CSc1cc(c3ccccc3c1)OCCCc1c(C(=O)O)n(C)c3c-2c(Cl)ccc13 [AZD5991] + CCN(CCO)CCCOc1ccc2c(Nc3cc(CC(=O)Nc4cccc(F)c4)[nH]n3)ncnc2c1 [AZD2811] (first compound max 1 µM, 7x7, partner max 1 µM)"
  ASSAY SYSTEM: "CAL-54 (Kidney Carcinoma)"
  combination Emax: 0.234
- COMPOUND: "Cc1cc2ncnn2cc1Nc1ncc2c(n1)n(C1CCOCC1)c(=O)n2C [AZD7648] + COc1cc([C@@H]2c3cc4c(cc3[C@@H](O[C@@H]3O[C@@H]5CO[C@@H](C)O[C@H]5[C@H](O)[C@H]3O)[C@H]3COC(=O)[C@H]23)OCO4)cc(OC)c1O [Etoposide] (first compound max 10 µM, 7x7, partner max 10 µM)"
  ASSAY SYSTEM: "CAL-54 (Kidney Carcinoma)"
  combination Emax: 0.731
- COMPOUND: "CS(=O)(=O)CCNCc1ccc(-c2ccc3ncnc(Nc4ccc(OCc5cccc(F)c5)c(Cl)c4)c3c2)o1 [Lapatinib] + NC1(c2ccc(-c3nc4ccn5c(=O)[nH]nc5c4cc3-c3ccccc3)cc2)CCC1 [MK-2206] (first compound max 10 µM, 7x7, partner max 10 µM)"
  ASSAY SYSTEM: "CAL-54 (Kidney Carcinoma)"
  combination Emax: 0.921
- COMPOUND: "COc1nnc2ccc(N3CCC(c4ccc(OCCN5CCN(C)C(=O)[C@H]5C)cc4)CC3)nn12 [AZD5153] + CCN(CCO)CCCOc1ccc2c(Nc3cc(CC(=O)Nc4cccc(F)c4)[nH]n3)ncnc2c1 [AZD2811] (first compound max 1 µM, 7x7, partner max 1 µM)"
  ASSAY SYSTEM: "CAL-54 (Kidney Carcinoma)"
  combination Emax: 0.778
- COMPOUND: "COc1cccc(OCCCN)c1-c1cc(Nc2cnc(C#N)cn2)n[nH]1 [Prexasertib] + CN(C)CCCOc1ccc(-c2ccc3ncc4c(c3c2)n(C2CCOCC2)c(=O)n4C)cn1 [AZD0156] (first compound max 1 µM, 7x7, partner max 1 µM)"
  ASSAY SYSTEM: "CAL-54 (Kidney Carcinoma)"
  combination Emax: 0.863
- COMPOUND: "COc1nnc2ccc(N3CCC(c4ccc(OCCN5CCN(C)C(=O)[C@H]5C)cc4)CC3)nn12 [AZD5153] + Cn1cnc2c(F)c(Nc3ccc(Br)cc3Cl)c(C(=O)NOCCO)cc21 [Selumetinib] (first compound max 1 µM, 7x7, partner max 10 µM)"
  ASSAY SYSTEM: "CAL-54 (Kidney Carcinoma)"
  combination Emax: 0.765
- COMPOUND: "Cc1nc(Nc2ncc(C(=O)Nc3c(C)cccc3Cl)s2)cc(N2CCN(CCO)CC2)n1 [Dasatinib] + CC(=O)Nc1cccc(-n2c(=O)n(C3CC3)c(=O)c3c(Nc4ccc(I)cc4F)n(C)c(=O)c(C)c32)c1 [Trametinib] (first compound max 2 µM, 7x7, partner max 1 µM)"
  ASSAY SYSTEM: "CAL-54 (Kidney Carcinoma)"
  combination Emax: 0.958
- COMPOUND: "COc1nnc2ccc(N3CCC(c4ccc(OCCN5CCN(C)C(=O)[C@H]5C)cc4)CC3)nn12 [AZD5153] + C[C@@H]1COCCN1C2=NC(=NC(=C2)C3(CC3)[S@](=N)(=O)C)C4=C5C=CNC5=NC=C4 [AZD6738] (first compound max 1 µM, 7x7, partner max 10 µM)"
  ASSAY SYSTEM: "CAL-54 (Kidney Carcinoma)"
  combination Emax: 0.823
- COMPOUND: "CCc1c2c(nc3ccc(O)cc13)-c1cc3c(c(=O)n1C2)COC(=O)[C@]3(O)CC [SN-38] + O=C(c1cc(Cc2n[nH]c(=O)c3ccccc23)ccc1F)N1CCN(C(=O)C2CC2)CC1 [Olaparib] (first compound max 0.3 µM, 7x7, partner max 10 µM)"
  ASSAY SYSTEM: "CAL-54 (Kidney Carcinoma)"
  combination Emax: 0.788
- COMPOUND: "NC1(C(=O)N[C@@H](CCO)c2ccc(Cl)cc2)CCN(c2ncnc3[nH]ccc23)CC1 [Capivasertib] + CC(C)n1c(=O)n(C)c2cnc3cc(F)c(-c4ccc(OCCCN5CCCCC5)nc4)cc3c21 [AZD1390] (first compound max 10 µM, 7x7, partner max 0.3 µM)"
  ASSAY SYSTEM: "CAL-54 (Kidney Carcinoma)"
  combination Emax: 0.466
- COMPOUND: "C[C@@H]1COCCN1c1cc(C2([S@](C)(=N)=O)CC2)nc(-c2ccnc3[nH]ccc23)n1 [AZD6738] + Nc1ccn([C@@H]2O[C@H](CO)[C@@H](O)C2(F)F)c(=O)n1 [Gemcitabine] (first compound max 10 µM, 7x7, partner max 0.3 µM)"
  ASSAY SYSTEM: "CAL-54 (Kidney Carcinoma)"
  combination Emax: 0.819

###

# Tested on: CAL-51 (Breast Carcinoma)
# ASSAY SUMMARY: Bliss excess, mean over the matrix (fraction); higher = more synergy
Quick reference for Bliss excess among some compounds
QUANTITY NAME: Bliss excess

- COMPOUND: "CC1(C)CCC(CN2CCN(c3ccc(C(=O)NS(=O)(=O)c4ccc(NCC5CCOCC5)c([N+](=O)[O-])c4)c(Oc4cnc5[nH]ccc5c4)c3)CC2)=C(c2ccc(Cl)cc2)C1 [Venetoclax] + C1CN(CCC1(C(=O)N[C@@H](CCO)C2=CC=C(C=C2)Cl)N)C3=NC=NC4=C3C=CN4 [Capivasertib] (first compound max 1 µM, 7x7, partner max 3 µM)"
  QUANTITY NAME: "Bliss excess"
  NUMERIC READOUT: -0.0879
- COMPOUND: "CN(CCO)CC[C@H](CSc1ccccc1)Nc1ccc(S(=O)(=O)NC(=O)c2ccc(N3CCC([C@@H](O)c4ccccc4-c4ccc(Cl)cc4)CC3)cc2)cc1S(=O)(=O)C(F)(F)F [AZD4320] + C1CN(CCC1(C(=O)N[C@@H](CCO)C2=CC=C(C=C2)Cl)N)C3=NC=NC4=C3C=CN4 [Capivasertib] (first compound max 1 µM, 7x7, partner max 3 µM)"
  QUANTITY NAME: "Bliss excess"
  NUMERIC READOUT: -0.0089
- COMPOUND: "COc1nnc2ccc(N3CCC(c4ccc(OCCN5CCN(C)C(=O)[C@H]5C)cc4)CC3)nn12 [AZD5153] + Cn1cnc2c(F)c(Nc3ccc(Br)cc3Cl)c(C(=O)NOCCO)cc21 [Selumetinib] (first compound max 1 µM, 7x7, partner max 10 µM)"
  QUANTITY NAME: "Bliss excess"
  NUMERIC READOUT: 0.0099

###

Quick reference for Bliss excess among some compounds
# System: SW1116 (Colorectal Carcinoma)
# ASSAY SUMMARY: Bliss excess, mean over the matrix (fraction); higher = more synergy
QUANTITY NAME: Bliss excess

- COMPOUND: "CN(CCO)CC[C@H](CSc1ccccc1)Nc1ccc(S(=O)(=O)NC(=O)c2ccc(N3CCC([C@@H](O)c4ccccc4-c4ccc(Cl)cc4)CC3)cc2)cc1S(=O)(=O)C(F)(F)F [AZD4320] + C[C@@H]1COCCN1C2=NC(=NC(=C2)C3(CC3)[S@](=N)(=O)C)C4=C5C=CNC5=NC=C4 [AZD6738] (first compound max 1 µM, 7x7, partner max 10 µM)"
  ASSAY SYSTEM: "SW1116 (Colorectal Carcinoma)"
  QUANTITY NAME: "Bliss excess"
  NUMERIC READOUT: -0.0406
- COMPOUND: "COc1nnc2ccc(N3CCC(c4ccc(OCCN5CCN(C)C(=O)[C@H]5C)cc4)CC3)nn12 [AZD5153] + CCN(CCO)CCCOc1ccc2c(Nc3cc(CC(=O)Nc4cccc(F)c4)[nH]n3)ncnc2c1 [AZD2811] (first compound max 1 µM, 7x7, partner max 1 µM)"
  ASSAY SYSTEM: "SW1116 (Colorectal Carcinoma)"
  QUANTITY NAME: "Bliss excess"
  NUMERIC READOUT: -0.0632
- COMPOUND: "Cn1cnc2c(F)c(Nc3ccc(Br)cc3Cl)c(C(=O)NOCCO)cc21 [Selumetinib] + C[C@@H]1COCCN1C2=NC(=NC(=C2)C3(CC3)[S@](=N)(=O)C)C4=C5C=CNC5=NC=C4 [AZD6738] (first compound max 10 µM, 7x7, partner max 10 µM)"
  ASSAY SYSTEM: "SW1116 (Colorectal Carcinoma)"
  QUANTITY NAME: "Bliss excess"
  NUMERIC READOUT: -0.0148
